Target: TNF-α (UniProt P01375 77-233, limits assumed)
Sequence (P01375 77-233 limits assumed): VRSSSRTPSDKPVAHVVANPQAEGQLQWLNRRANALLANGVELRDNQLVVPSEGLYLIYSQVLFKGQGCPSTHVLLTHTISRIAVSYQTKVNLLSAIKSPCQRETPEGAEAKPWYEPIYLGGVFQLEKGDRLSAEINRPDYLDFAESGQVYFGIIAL
Experiment: cell-based or functional assay
resultType: Relative Activity (Cytotoxicity-neutralizing activity) (fold)
Write down the numeric answer in fold and omit the unit.

Sure, the documented Relative Activity (Cytotoxicity-neutralizing activity) (fold) for TNFRI171-A8 (receptor) MDSVCPQGKYIHPQNNSICCTKCHKGTYLYNDCPGPGQDTDCRECESGSFTAFENFLPACLSCSKCRKEMGQVEISSCTVDRDTVCGCRKNQYRHYWSENLFQCFNCSLCLNGTVHLSCQEKQNTVCTCHAGFFLRENECVSCSNCKKSLECTKLCLPQIENVKGTEDSGTT is 120

Notebook: TNFRI171-A18 (receptor) MDSVCPQGKYIHPQNNSICCTKCHKGTYLYNDCPGPGQDTDCRECESGSFTAHENFLPACLSCSKCRKEMGQVEISSCTVDRDTVCGCRKNQYRHYWSENLFQCFNCSLCLNGTVHLSCQEKQNTVCTCHAGFFLRENECVSCSNCKKSLECTKLCLPQIENVKGTEDSGTT , Relative Activity (Cytotoxicity-neutralizing activity) (fold) read as 126

Entry TNFRI171-A22 (receptor) MDSVCPQGKYIHPQNNSICCTKCHKGTYLYNDCPGPGQDTDCRECESGSFTAMENFLPGCLSCSKCRKEMGQVEISSCTVDRDTVCGCRKNQYRHYWSENLFQCFNCSLCLNGTVHLSCQEKQNTVCTCHAGFFLRENECVSCSNCKKSLECTKLCLPQIENVKGTEDSGTT ; Relative Activity (Cytotoxicity-neutralizing activity) (fold) = 242

So for TNFRI171-A21 (receptor) MDSVCPQGKYIHPQNNSICCTKCHKGTYLYNDCPGPGQDTDCRECESGSFTAIENFLPGCLSCSKCRKEMGQVEISSCTVDRDTVCGCRKNQYRHYWSENLFQCFNCSLCLNGTVHLSCQEKQNTVCTCHAGFFLRENECVSCSNCKKSLECTKLCLPQIENVKGTEDSGTT , the logged Relative Activity (Cytotoxicity-neutralizing activity) (fold) turned out to be 226

Value of Relative Activity (Cytotoxicity-neutralizing activity) (fold) reported for the binder TNFRI171-A15 (receptor) MDSVCPQGKYIHPQNNSICCTKCHKGTYLYNDCPGPGQDTDCRECESGSFTAYENFLPACLSCSKCRKEMGQVEISSCTVDRDTVCGCRKNQYRHYWSENLFQCFNCSLCLNGTVHLSCQEKQNTVCTCHAGFFLRENECVSCSNCKKSLECTKLCLPQIENVKGTEDSGTT is 142

API: the following record is the query input.
Relative Activity (Cytotoxicity-neutralizing activity) (fold) reported for this binder TNFRI171-A9 (receptor) MDSVCPQGKYIHPQNNSICCTKCHKGTYLYNDCPGPGQDTDCRECESGSFTAMENFLPACLSCSKCRKEMGQVEISSCTVDRDTVCGCRKNQYRHYWSENLFQCFNCSLCLNGTVHLSCQEKQNTVCTCHAGFFLRENECVSCSNCKKSLECTKLCLPQIENVKGTEDSGTT : 158
